details: 313.15 K; 101.33 kPa; Liquid; Vibrating tube method
Note to self: values exactly at 1000 kg/m3 are 1. So mass density at or above 1000 kg/m3 is 1, below is 0.

# structure.as.smiles, assigned.class
rows = [
    ("Nc1ccccc1Cl", 1),
    ("Nc1cccc(Cl)c1", 1),
    ("CN(C)c1ccccc1", 0),
]

====

conditions: 313.15 K; 101.33 kPa; Liquid; Frequency=2 MHz; Linear variable-path acoustic interferometer

# compound, speed of sound [m/s]
measured = [
    ("CN(C)c1ccccc1 [N,N-dimethylaniline]", 1432),
    ("CNc1ccccc1 [N-methylaniline]", 1511),
    ("Nc1cccc(Cl)c1 [3-chlorobenzenamine]", 1484),
    ("Nc1ccccc1Cl [2-chlorobenzeneamine]", 1437),
    ("OCc1ccccc1 [benzenemethanol]", 1487),
    ("Nc1ccccc1 [aniline]", 1578),
]

====

In this section, each of the compounds is paired with its reported speed of sound.
conditions: 303.15 K; 101.33 kPa; Liquid; Frequency=2 MHz; Linear variable-path acoustic interferometer
property.measured: speed of sound (m/s)

# structure.as.smiles, observed
records = [
    ("CNc1ccccc1", 1549),
    ("Nc1cccc(Cl)c1", 1516),
    ("Nc1ccccc1", 1615),
    ("Nc1ccccc1Cl", 1468),
    ("CN(C)c1ccccc1", 1470),
    ("OCc1ccccc1", 1512),
]

====

conditions: 308.15 K; 101.33 kPa; Liquid; Vibrating tube method
Lab note: anything with mass density below 1000 kg/m3 is marked t; values at 1000 kg/m3 or higher are marked f.

# structure.as.smiles, assigned.class
rows = [
    ("CN(C)c1ccccc1", "t"),
    ("Nc1cccc(Cl)c1", "f"),
    ("Nc1ccccc1Cl", "f"),
    ("OCc1ccccc1", "f"),
]

====

conditions: 318.15 K; 101.33 kPa; Liquid; Vibrating tube method
Numbers after ± are expanded uncertainties.
In this section, each of the molecules is paired with its reported mass density.

# structure.as.smiles, mass density
measured = [
    ("Nc1ccccc1Cl", "1187.92 ± 0.53 kg/m3"),
    ("Nc1cccc(Cl)c1", "1191.98 ± 0.57 kg/m3"),
    ("OCc1ccccc1", "1025.57 ± 0.14 kg/m3"),
    ("CNc1ccccc1", "965.81 ± 0.44 kg/m3"),
    ("Nc1ccccc1", "1000.36 ± 0.4 kg/m3"),
    ("CN(C)c1ccccc1", "935.3 ± 0.41 kg/m3"),
]

====

details: 323.15 K; 101.33 kPa; Liquid; Vibrating tube method
Note to self: values exactly at 1000 kg/m3 are true. So mass density at or above 1000 kg/m3 is true, below is false.

# structure.as.smiles, assigned.class
measured = [
    ("CNc1ccccc1", "false"),
    ("CN(C)c1ccccc1", "false"),
    ("Nc1cccc(Cl)c1", "true"),
    ("Nc1ccccc1Cl", "true"),
]

====

settings: 303.15 K; 101.33 kPa; Liquid; Vibrating tube method
Note to self: values exactly at 1000 kg/m3 are 1. So mass density at or above 1000 kg/m3 is 1, below is 0.

# compound, assigned.class
records = [
    ("Nc1ccccc1Cl [2-chlorobenzeneamine]", 1),
    ("OCc1ccccc1 [benzenemethanol]", 1),
    ("CN(C)c1ccccc1 [N,N-dimethylaniline]", 0),
    ("Nc1cccc(Cl)c1 [3-chlorobenzenamine]", 1),
]
